# Measured Target: T1, HLA-DR DRB1*0401 (human)
# T1 chain 1: not shown
# T1 chain 2: not shown
# Assay Explanation: radioligand inhibition, purified HLA-DR
# Condition Context: remark: other sources report otherwise
pIC50: −log10 of the molar value.
Assay Endpoint: pIC50

Sample records with pIC50:
                                     binder  experimental_value
0  INGIPQQHTQVLFIA [CEA.629 peptide 9019.0139]                6.74
1       RPRFRELVSEFSRMA [Peptide 9019.0095]                7.42
2            TEILKGGVLIQRNPQ [Her2/neu.146]                7.40
3              RHLYQGCQVVQGNLE [Her/neu.47]                6.37
4         ICTIDVYMIMVKCWM [Peptide 1622.04]                6.14

a. IEALLESSLRQAQQN [Cyclin D1.251]
b. APTIRGDPECHLFYN [Peptide 9019.0022]
Prompt: Between a and b , whose recorded pIC50 is greater? Please respond with the label that marks your chosen entry.
Response: a
